# Tested on: Schistosoma japonicum
# test_summary: Antischistosomal activity against adult Schistosoma japonicum assessed as vitality reduction at 100 uM after 24 hrs (reference value: 0%)
# Type: functional
readout_name: inhibition at 100 µM
Give your result as the value with the unit written after it.

>>> reported_measurement("O=C1CCC(C(=O)N2CC(=O)N3CCc4ccccc4[C@H]3C2)C1 (some centres undefined)")
"16%"
>>> reported_measurement("O=C1CC(C(=O)N2CC(=O)N3CCc4ccccc4C3C2)C1 (racemic)")
"6.7%"
>>> reported_measurement("O=C1CCC(C(=O)N2CC(=O)N3CCc4ccccc4C3C2)C1 (racemic)")
"17.8%"
>>> reported_measurement("O=C1CCC(C(=O)N2CC(=O)N3CCc4ccccc4C3C2)CC1 (racemic)")
"46.7%"
>>> reported_measurement("O=C1CCC(C(=O)N2CC(=O)N3CCc4ccccc4[C@@H]3C2)C1 (some centres undefined)")
"13.3%"

Okay, now this compound:
Q) Notebook: pull reported inhibition at 100 µM for Schistosoma japonicum, entry `O=C1CCC(C(=O)N2CC(=O)N3CCc4ccccc4[C@H]3C2)CC1`
A) 8.7%

* * *

# Test system: Schistosoma japonicum
# test_summary: Antischistosomal activity against adult Schistosoma japonicum assessed as vitality reduction at 100 uM after 48 hrs (reference value: 0%)
# Assay type: functional
The reader will find reported inhibition at 100 µM values listed item by item below.
Hi! Could you send only the number? It should be in %, unit omitted.

>>> reported_measurement("O=C1CCC(C(=O)N2CC(=O)N3CCc4ccccc4[C@@H]3C2)CC1")
82.2
>>> reported_measurement("O=C1CCC(C(=O)N2CC(=O)N3CCc4ccccc4[C@H]3C2)CC1")
15.3
>>> reported_measurement("O=C1CCC(C(=O)N2CC(=O)N3CCc4ccccc4[C@@H]3C2)C1 (some centres undefined)")
11.1

Q) Look at this compound and give its reported inhibition at 100 µM. O=C1CCC(C(=O)N2CC(=O)N3CCc4ccccc4C3C2)CC1 (racemic)
A) 60

Q) Using the record for O=C1CCC(C(=O)N2CC(=O)N3CCc4ccccc4[C@H]3C2)C1 (some centres undefined) , report its inhibition at 100 µM.
A) 15.5

Q) Value lookup for inhibition at 100 µM; key = `O=C1CC(C(=O)N2CC(=O)N3CCc4ccccc4[C@H]3C2)C1`
A) 8.7

Q) Query (compound): O=C1CC(C(=O)N2CC(=O)N3CCc4ccccc4C3C2)C1 (racemic) ; field requested: inhibition at 100 µM
A) 10

Q) Look up inhibition at 100 µM for this compound: `O=C1CC(C(=O)N2CC(=O)N3CCc4ccccc4[C@@H]3C2)C1`
A) 22

Q) I would be grateful if you could share the reported inhibition at 100 µM for O=C1CCC(C(=O)N2CC(=O)N3CCc4ccccc4C3C2)C1 (racemic) .
A) 13.3

* * *

survival at 100 µM values, listed per item
# Test system: Schistosoma japonicum
# test_summary: Antischistosomal activity against adult Schistosoma japonicum assessed as worm survival at 100 uM after 24 hrs (reference value: 100%)
# Type: functional
Number in %, nothing else.

>>> reported_measurement("O=C1CC(C(=O)N2CC(=O)N3CCc4ccccc4[C@@H]3C2)C1")
100

Q) Using the record for O=C1CCC(C(=O)N2CC(=O)N3CCc4ccccc4[C@@H]3C2)C1 (some centres undefined) , report its survival at 100 µM.
A) 100

Q) Looking for the measured survival at 100 µM of O=C1CCC(C(=O)N2CC(=O)N3CCc4ccccc4[C@H]3C2)C1 (some centres undefined) , can you help?
A) 100

Q) # query: survival at 100 µM of entry `O=C1CCC(C(=O)N2CC(=O)N3CCc4ccccc4[C@H]3C2)CC1`
A) 100

* * *

Each item that follows carries a reported survival at 50 µM.
# System: Schistosoma japonicum
# test_summary: Antischistosomal activity against juvenile Schistosoma japonicum assessed as worm survival at 50 uM after 24 hrs (reference value: 100%)
# Format: functional
Numbers only here, please. The scale is %.

Consider the worked cases shown below.
>>> reported_measurement("O=C1CCC(C(=O)N2CC(=O)N3CCc4ccccc4[C@@H]3C2)C1 (some centres undefined)")
100
>>> reported_measurement("O=C1CCC(C(=O)N2CC(=O)N3CCc4ccccc4[C@H]3C2)C1 (some centres undefined)")
100
>>> reported_measurement("O=C1CC(C(=O)N2CC(=O)N3CCc4ccccc4[C@H]3C2)C1")
88.3
>>> reported_measurement("O=C1CCC(C(=O)N2CC(=O)N3CCc4ccccc4C3C2)C1 (racemic)")
54.2
>>> reported_measurement("O=C1CCC(C(=O)N2CC(=O)N3CCc4ccccc4[C@H]3C2)CC1")
88.3
>>> reported_measurement("O=C1CC(C(=O)N2CC(=O)N3CCc4ccccc4[C@@H]3C2)C1")
100
>>> reported_measurement("O=C1CCC(C(=O)N2CC(=O)N3CCc4ccccc4[C@@H]3C2)CC1")
51.6
>>> reported_measurement("O=C1CCC(C(=O)N2CC(=O)N3CCc4ccccc4C3C2)CC1 (racemic)")
69.2

Next compound, please.
Q) Missing value: survival at 50 µM, Schistosoma japonicum, entry O=C1CC(C(=O)N2CC(=O)N3CCc4ccccc4C3C2)C1 (racemic) . Fill in?
A) 82.5

* * *

# System: Schistosoma japonicum
# test_summary: Antischistosomal activity against adult Schistosoma japonicum assessed as vitality reduction at 100 uM after 24 hrs (reference value: 0%)
# Assay type: functional
Quick reference for inhibition at 100 µM among some compounds
State the value with its unit after it.

>>> reported_measurement("O=C1CC(C(=O)N2CC(=O)N3CCc4ccccc4[C@H]3C2)C1")
"6.7%"
>>> reported_measurement("O=C1CCC(C(=O)N2CC(=O)N3CCc4ccccc4[C@@H]3C2)CC1")
"86.7%"

From here, focus on the item given below.
Q) Looking for the measured inhibition at 100 µM of `O=C1CC(C(=O)N2CC(=O)N3CCc4ccccc4[C@@H]3C2)C1` , can you help?
A) 24.5%
